Recorded values, source patent US20250302815A1.

Listed here are molecules together with their documented DC50.
- study-system: PTPN2 (B16F10.4 cells) (Mus musculus)
- Construct: HiBiT; host or cells: B16F10.4
- Sequence (Q06180 whole entry): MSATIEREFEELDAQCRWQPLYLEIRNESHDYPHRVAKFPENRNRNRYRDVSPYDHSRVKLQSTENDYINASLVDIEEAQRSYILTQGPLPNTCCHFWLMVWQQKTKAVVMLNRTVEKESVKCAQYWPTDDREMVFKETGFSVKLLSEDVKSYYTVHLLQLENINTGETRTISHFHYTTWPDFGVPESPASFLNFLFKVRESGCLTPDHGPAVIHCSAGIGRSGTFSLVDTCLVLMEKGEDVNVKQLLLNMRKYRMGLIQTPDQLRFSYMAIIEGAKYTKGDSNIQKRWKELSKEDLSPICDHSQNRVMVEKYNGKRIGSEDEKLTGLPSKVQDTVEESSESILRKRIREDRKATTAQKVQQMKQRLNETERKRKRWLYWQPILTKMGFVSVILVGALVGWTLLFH
- assay-summary: HiBiT Degradation B16F10.4 PTPN2
- Assay type: cell-based
- conditions: 24.0 hours

Look over these answered cases.
CC1(C)C[C@@H](Nc2cccc(-c3sc(C(=O)O)c(OCC(=O)O)c3Cl)c2)CCN1S(=O)(=O)Cc1cccc(NC(=O)N2CCC(c3ccc4c5c(cccc35)C(=O)N4C3CCC(=O)NC3=O)CC2)c1F (stereo partly shown) [Example 128] = < 0.05 µM
CC1(C)C[C@@H](Nc2cccc(-c3sc(C(=O)O)c(OCC(=O)O)c3Cl)c2)CCN1S(=O)(=O)Cc1cccc(NC(=O)N2CCC(c3ccc4c(c3)n(C3CCOCC3)c(=O)n4C3CCC(=O)NC3=O)CC2)c1 (stereo partly shown) [Example 159] = 0.2 to 1 µM
Cn1c(=O)n(C2CCC(=O)NC2=O)c2ccc(NC3CN(C(=O)Nc4cccc(CS(=O)(=O)N5CC[C@H](Nc6cccc(-c7sc(C(=O)O)c(OCC(=O)O)c7Cl)c6)CC5(C)C)c4)C3)cc21 (stereo partly shown) [Example 79] = 0.05 to 0.2 µM

// next item, DC50 requested
Please report the recorded DC50 for O=C(O)COc1c(C(=O)O)sc(-c2cccc(NC3CCN(S(=O)(=O)Cc4cccc(NC(=O)CCc5ccc6c(c5)CN(C5CCC(=O)NC5=O)C6=O)c4)CC3)c2)c1Cl (stereo not shown) [Example 47] . 0.2 to 1 µM

###

- study-system: PTPN2 (HiBIT-PTPN2 in 293T.109 cells) (Homo sapiens)
- Construct: expressed in transfected cells; host or cells: 293T.109 (293T WT from ATCC)
- assay-summary: HiBiT Degradation 293T.109 PTPN2 (Nano-Glo HiBiT Lytic Assay)
- Format: cell-based
- conditions: 24.0 hours
Each record here notes measured DC50.

Cn1c(=O)n(C2CCC(=O)NC2=O)c2ccc3c(c21)CCCN3C1CCN(C(=O)Nc2cccc(CS(=O)(=O)N3CC[C@H](Nc4cccc(-c5sc(C(=O)O)c(OCC(=O)O)c5Cl)c4)CC3(C)C)c2)CC1 (stereo partly drawn) = 50 to 200 nM

Query the reported DC50 for PTPN2 (HiBIT-PTPN2 in 293T.109 cells) (Homo sapiens); item: CC(C)n1c(=O)n([C@@H]2CCC(=O)NC2=O)c2ccc(C3CCN(C(=O)Nc4cccc(CS(=O)(=O)N5CC[C@H](Nc6cccc(-c7sc(C(=O)O)c(OCC(=O)O)c7Cl)c6)CC5(C)C)c4)CC3)cc21 (single isomer, unassigned) [Example 87a] 50 to 200 nM

Record lookup: for PTPN2 (HiBIT-PTPN2 in 293T.109 cells) (Homo sapiens), what DC50 belongs to CC1(C)C[C@H](Nc2cccc(-c3sc(C(=O)O)c(OCC(=O)O)c3Cl)c2F)CCN1S(=O)(=O)Cc1ccc(F)c(NC(=O)C2CN(C(=O)CNc3cccc4c3CN(C3CCC(=O)NC3=O)C4=O)C2)c1 (stereo partly drawn) ? 50 to 200 nM

So what DC50 did Cn1c(=O)n(C2CCC(=O)NC2=O)c2ccc(C3CCN(C(=O)Nc4cccc(CS(=O)(=O)N5CC[C@@H](Nc6cc(-c7sc(C(=O)O)c(OCC(=O)O)c7Cl)ccc6F)CC5(C)C)c4)CC3)cc21 (stereo partly drawn) get with PTPN2 (HiBIT-PTPN2 in 293T.109 cells) (Homo sapiens)? 200 to 1000 nM

# returns recorded DC50 (system: PTPN2 (HiBIT-PTPN2 in 293T.109 cells) (Homo sapiens)) for Cn1c(=O)n([C@@H]2CCC(=O)NC2=O)c2ccc([C@@H]3CCN(C(=O)Nc4cccc(CS(=O)(=O)N5CC[C@H](Nc6cccc(-c7sc(C(=O)O)c(OCC(=O)O)c7Cl)c6)CC5(C)C)c4)CC3(F)F)cc21 (single isomer, unassigned) [Example 169b] 50 to 200 nM

Fill in the recorded DC50 for this compound, with PTPN2 (HiBIT-PTPN2 in 293T.109 cells) (Homo sapiens) as test system: CC1(C)C[C@@H](Nc2cccc(-c3sc(C(=O)O)c(OCC(=O)O)c3Cl)c2)CCN1S(=O)(=O)Cc1cccc(NC(=O)NCCC2CCN(c3ccc4c5c(cccc35)C(=O)N4C3CCC(=O)NC3=O)CC2)c1 (stereo partly drawn) 50 to 200 nM

###

- study-system: PTPN2 (HiBIT-PTPN2 in 293T.109 cells) (Homo sapiens)
- Construct: expressed in transfected cells; host or cells: 293T.109 (293T WT from ATCC)
- Sequence (P17706 1-415): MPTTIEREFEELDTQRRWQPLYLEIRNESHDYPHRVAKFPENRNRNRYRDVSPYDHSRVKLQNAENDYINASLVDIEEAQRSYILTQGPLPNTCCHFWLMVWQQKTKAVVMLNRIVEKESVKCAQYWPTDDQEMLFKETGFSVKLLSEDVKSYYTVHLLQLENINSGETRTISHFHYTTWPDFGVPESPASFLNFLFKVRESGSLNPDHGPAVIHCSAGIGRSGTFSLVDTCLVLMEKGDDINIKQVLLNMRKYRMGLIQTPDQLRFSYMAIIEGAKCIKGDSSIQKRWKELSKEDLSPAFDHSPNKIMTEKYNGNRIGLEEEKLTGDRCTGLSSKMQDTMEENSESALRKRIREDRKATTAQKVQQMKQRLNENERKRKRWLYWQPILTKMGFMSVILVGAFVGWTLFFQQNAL
- assay-summary: HiBiT Degradation 293T.109 PTPN2 (Nano-Glo HiBiT Lytic Assay)
- Format: cell-based
- conditions: 24.0 hours
outcome-measure: DC50

CC1(C)C[C@@H](Nc2cccc(-c3sc(C(=O)O)c(OCC(=O)O)c3Cl)c2)CCN1S(=O)(=O)Cc1cccc(NC(=O)C2CCN(c3ccc4c5c(cccc35)N(C3CCC(=O)NC3=O)C4=O)CC2)c1 (stereo partly shown) [Example 216] = < 50 nM
Cn1c(=O)n(C2CCC(=O)NC2=O)c2ccc(-c3ccc(NC(=O)Nc4cccc(CS(=O)(=O)N5CC[C@H](Nc6cccc(-c7sc(C(=O)O)c(OCC(=O)O)c7Cl)c6)CC5(C)C)c4)cc3)cc21 (stereo partly shown) [Example 145] = 50 to 200 nM
CC1(C)C[C@H](Nc2cccc(-c3sc(C(=O)O)c(OCC(=O)O)c3Cl)c2)CCN1S(=O)(=O)Cc1cccc(NC(=O)N2CCC(c3ccc4c5c(cccc35)C(=O)N4C3CCC(=O)NC3=O)CC2)c1F (stereo partly shown) [Example 129] = 200 to 1000 nM
Cn1c(=O)n(C2CCC(=O)NC2=O)c2ccc(C3CCN(C(=O)Nc4cccc(CS(=O)(=O)N5CC[C@@H](Nc6cccc(-c7sc(C(=O)O)c(OCC(=O)O)c7Cl)c6)CC5(C)C)c4F)CC3)cc21 (stereo partly shown) [Example 131] = 200 to 1000 nM
CC1(C)C[C@@H](Nc2cccc(-c3sc(C(=O)O)c(OCC(=O)O)c3Cl)c2F)CCN1S(=O)(=O)Cc1ccc(F)c(NC(=O)C2CN(C(=O)CNc3cccc4c3CN(C3CCC(=O)NC3=O)C4=O)C2)c1 (stereo partly shown) [Example 148] = < 50 nM
Cn1c(=O)n(C2CCC(=O)NC2=O)c2ccc(N3CCC(C(=O)Nc4cccc(CS(=O)(=O)N5CC[C@H](Nc6cccc(-c7sc(C(=O)O)c(OCC(=O)O)c7Cl)c6)CC5(C)C)c4)CC3)cc21 (stereo partly shown) [Example 122] = 50 to 200 nM

Could you share what DC50 was measured for CC1(C)C[C@@H](Nc2cccc(-c3sc(C(=O)O)c(OCC(=O)O)c3Cl)c2)CCN1S(=O)(=O)Cc1cccc(NC(=O)OC2CN(C(=O)CNc3cccc4c3CN(C3CCC(=O)NC3=O)C4=O)C2)c1 (stereo partly shown) [Example 96] , tested on PTPN2 (HiBIT-PTPN2 in 293T.109 cells) (Homo sapiens)? 50 to 200 nM

Notebook: pull reported DC50 for PTPN2 (HiBIT-PTPN2 in 293T.109 cells) (Homo sapiens), entry O=C(O)COc1c(C(=O)O)sc(-c2cccc(NC3CCN(S(=O)(=O)Cc4cccc(NC(=O)CCOCCOCCOCCCc5ccc6c(c5)CN(C5CCC(=O)NC5=O)C6=O)c4)CC3)c2)c1Cl (stereo not shown) [Example 19] 200 to 1000 nM

Item: CC1(C)C[C@@H](Nc2cccc(-c3sc(C(=O)O)c(OCC(=O)O)c3Cl)c2)CCN1S(=O)(=O)Cc1cccc(NC(=O)N2CCC(c3ccc4c(c3)n(CC(F)(F)F)c(=O)n4C3CCC(=O)NC3=O)CC2)c1 (stereo partly shown) [Example 155] Test system: PTPN2 (HiBIT-PTPN2 in 293T.109 cells) (Homo sapiens) Read-out: DC50 Value: ? 50 to 200 nM

Kindly state the measured DC50 obtained for Cn1c(=O)n(C2CCC(=O)NC2=O)c2ccc(N3CC(OCC(=O)Nc4cccc(CS(=O)(=O)N5CC[C@H](Nc6cccc(-c7sc(C(=O)O)c(OCC(=O)O)c7Cl)c6)CC5(C)C)c4)C3)cc21 (stereo partly shown) [Example 107] with PTPN2 (HiBIT-PTPN2 in 293T.109 cells) (Homo sapiens). 50 to 200 nM

Which measured DC50 belongs to Cn1nc(C2CCC(=O)NC2=O)c2ccc(C3CCN(C(=O)Nc4cccc(CS(=O)(=O)N5CC[C@@H](Nc6cccc(-c7sc(C(=O)O)c(OCC(=O)O)c7Cl)c6)CC5(C)C)c4)CC3(F)F)cc21 (stereo partly shown) [Example 185] , tested on PTPN2 (HiBIT-PTPN2 in 293T.109 cells) (Homo sapiens)? 200 to 1000 nM

Lookup: DC50 / PTPN2 (HiBIT-PTPN2 in 293T.109 cells) (Homo sapiens) / Cn1c(=O)n(C2CCC(=O)NC2=O)c2ccc(N3CCN(C(=O)Nc4cccc(CS(=O)(=O)N5CC[C@H](Nc6cccc(-c7sc(C(=O)O)c(OCC(=O)O)c7Cl)c6)CC5(C)C)c4)CC3)cc21 (stereo partly shown) [Example 80] 50 to 200 nM

# value lookup — system PTPN2 (HiBIT-PTPN2 in 293T.109 cells) (Homo sapiens), readout DC50, item CC1(C)C[C@@H](Nc2cccc(-c3sc(C(=O)O)c(OCC(=O)O)c3Cl)c2)CCN1S(=O)(=O)Cc1cccc(NC(=O)C2CN(C(=O)CNc3ccc4c(c3)CN(C3CCC(=O)NC3=O)C4=O)C2)c1 (stereo partly shown) [Example 57] 50 to 200 nM
